These data points were gathered from patent US20250313535A1.

molecular target: α4β7 integrin (Homo sapiens (Human), UniProt P13612+P26010); assay: Integrin Adhesion Assay: Protocol 4 (MAdCAM-coated plate, RPMI-8866 cells with stable LOF mutation of the ITGB1 gene); type: cell-based; conditions: Protocol 4; RPMI-8866 cells with LOF mutation of ITGB1, MAdCAM; read-out: Mean IC50 α4β7 KO
Sequence (P13612 34-1032): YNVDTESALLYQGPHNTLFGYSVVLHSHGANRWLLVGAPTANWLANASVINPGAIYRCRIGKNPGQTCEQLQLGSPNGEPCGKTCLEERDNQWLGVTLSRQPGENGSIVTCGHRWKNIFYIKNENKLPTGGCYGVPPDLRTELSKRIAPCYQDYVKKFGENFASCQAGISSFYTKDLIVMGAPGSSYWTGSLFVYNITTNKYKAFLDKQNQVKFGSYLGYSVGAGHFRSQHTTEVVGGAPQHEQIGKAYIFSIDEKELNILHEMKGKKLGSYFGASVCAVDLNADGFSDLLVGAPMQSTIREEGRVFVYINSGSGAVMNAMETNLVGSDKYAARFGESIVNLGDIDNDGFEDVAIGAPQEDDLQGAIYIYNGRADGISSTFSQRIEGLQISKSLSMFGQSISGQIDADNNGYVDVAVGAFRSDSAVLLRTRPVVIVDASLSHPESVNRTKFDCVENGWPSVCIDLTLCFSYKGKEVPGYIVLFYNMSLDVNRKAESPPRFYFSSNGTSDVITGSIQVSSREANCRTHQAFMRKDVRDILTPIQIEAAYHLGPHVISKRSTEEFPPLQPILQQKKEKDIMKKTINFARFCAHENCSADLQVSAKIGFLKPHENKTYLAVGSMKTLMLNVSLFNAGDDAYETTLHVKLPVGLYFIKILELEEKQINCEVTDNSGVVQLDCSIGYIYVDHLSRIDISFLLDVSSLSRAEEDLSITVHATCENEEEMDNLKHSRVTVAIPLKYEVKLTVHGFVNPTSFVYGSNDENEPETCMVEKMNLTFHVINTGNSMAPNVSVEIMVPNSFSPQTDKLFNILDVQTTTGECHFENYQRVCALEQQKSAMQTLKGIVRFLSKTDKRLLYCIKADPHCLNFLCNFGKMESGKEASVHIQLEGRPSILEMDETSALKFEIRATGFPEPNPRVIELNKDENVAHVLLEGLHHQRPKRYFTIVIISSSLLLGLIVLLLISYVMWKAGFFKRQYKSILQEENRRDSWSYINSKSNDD
Sequence (P26010 20-798): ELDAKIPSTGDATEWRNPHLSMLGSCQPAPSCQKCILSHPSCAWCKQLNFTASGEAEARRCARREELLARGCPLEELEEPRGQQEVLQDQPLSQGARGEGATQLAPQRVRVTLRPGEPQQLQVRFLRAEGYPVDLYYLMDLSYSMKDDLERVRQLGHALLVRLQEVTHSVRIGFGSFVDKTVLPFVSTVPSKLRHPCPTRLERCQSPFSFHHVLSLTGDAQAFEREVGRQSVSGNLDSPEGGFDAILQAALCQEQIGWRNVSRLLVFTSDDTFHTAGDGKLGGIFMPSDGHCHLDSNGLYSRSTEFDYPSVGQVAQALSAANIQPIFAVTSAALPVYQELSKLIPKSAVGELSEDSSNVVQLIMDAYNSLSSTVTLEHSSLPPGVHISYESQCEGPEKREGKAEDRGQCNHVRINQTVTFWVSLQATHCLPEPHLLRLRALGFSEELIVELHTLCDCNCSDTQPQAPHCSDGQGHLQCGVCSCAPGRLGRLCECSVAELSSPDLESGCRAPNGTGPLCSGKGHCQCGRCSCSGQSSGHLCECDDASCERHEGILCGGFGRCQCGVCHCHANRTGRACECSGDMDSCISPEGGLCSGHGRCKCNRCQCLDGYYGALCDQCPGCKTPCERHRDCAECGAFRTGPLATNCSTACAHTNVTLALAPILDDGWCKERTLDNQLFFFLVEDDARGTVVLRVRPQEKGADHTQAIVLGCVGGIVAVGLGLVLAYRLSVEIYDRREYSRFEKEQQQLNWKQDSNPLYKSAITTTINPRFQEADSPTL
pIC50: −log10 of the molar value.
// pIC50 lookup, one value per entry

// solved cases for pIC50 follow
| COMPOUND | SYSTEM NAME | READING |
| --- | --- | --- |
| CC1(C)CCN(Cc2cnc(-c3cccc4c(C[C@H](NC(=O)C5(C(F)(F)F)CCN(C6COC6)CC5)C(=O)O)cccc34)c3ccccc23)CC1 | α4β7 integrin (Homo sapiens (Human), UniProt P13612+P26010) | > 8.00 |
| O=C(O)[C@H](Cc1cccc2c(-c3ncc(CN4CCC[C@H](F)C4)c4ccccc34)cccc12)NC(=O)C1(C(F)(F)F)CCN(CC(F)(F)F)CC1 | α4β7 integrin (Homo sapiens (Human), UniProt P13612+P26010) | 7.00 to 8.00 |
| COc1cccc(CCN2CCC[C@@H](F)C2)c1-c1cccc2c(C[C@H](NC(=O)C3(C(F)(F)F)CCN(CC(F)(F)F)CC3)C(=O)O)cccc12 | α4β7 integrin (Homo sapiens (Human), UniProt P13612+P26010) | > 8.00 |

Write down measured pIC50 (α4β7 integrin (Homo sapiens (Human), UniProt P13612+P26010)) for this compound. COc1c(CN2CCCCC2)ccc(OC(F)(F)F)c1-c1cccc2c(C[C@H](NC(=O)c3c(C)cccc3F)C(=O)O)cccc12
7.00 to 8.00

Write down measured pIC50 (α4β7 integrin (Homo sapiens (Human), UniProt P13612+P26010)) for this compound. COc1ccc(CCN2CCCCC2)cc1-c1cccc2c(C[C@H](NC(=O)c3c(C)cccc3F)C(=O)O)cccc12
7.00 to 8.00

Write down measured pIC50 (α4β7 integrin (Homo sapiens (Human), UniProt P13612+P26010)) for this compound. Cc1cccc(C)c1-c1cc(C(=O)N[C@@H](Cc2cccc3c(-n4c(=O)cc(CCN5CC(F)C5)n(C)c4=O)cccc23)C(=O)O)c(F)c(C(F)(F)F)c1
< 6.00

Write down measured pIC50 (α4β7 integrin (Homo sapiens (Human), UniProt P13612+P26010)) for this compound. COc1ccc(CN2CCN(Cc3ccc(C(F)(F)F)cc3)CC2)c(OC)c1-c1cccc2c(C[C@H](NC(=O)C3(C(F)(F)F)CCN(CC(F)(F)F)CC3)C(=O)O)cccc12
7.00 to 8.00

Write down measured pIC50 (α4β7 integrin (Homo sapiens (Human), UniProt P13612+P26010)) for this compound. COc1cccc(CCN2CCC(C)C(F)(F)CC2)c1-c1cccc2c(C[C@H](NC(=O)C3(C(F)(F)F)CCN(CC(F)(F)F)CC3)C(=O)O)cccc12 (some centres unmarked)
> 8.00

Write down measured pIC50 (α4β7 integrin (Homo sapiens (Human), UniProt P13612+P26010)) for this compound. Cc1cccc(F)c1C(=O)N[C@@H](Cc1cccc2c(-c3c(C(F)(F)F)c4cc(CCN5CCC(F)(F)CC5)ccc4n(C)c3=O)cccc12)C(=O)O
7.00 to 8.00

Write down measured pIC50 (α4β7 integrin (Homo sapiens (Human), UniProt P13612+P26010)) for this compound. O=C(O)[C@H](Cc1cccc2c(-c3ncc(CN4CCN(C5CC5)CC4)cc3C3CC3)cccc12)NC(=O)C1(C(F)(F)F)CCN(CC(F)F)CC1
> 8.00

Write down measured pIC50 (α4β7 integrin (Homo sapiens (Human), UniProt P13612+P26010)) for this compound. COc1ccc(CN2CCN(C3CCC3)CC2)c(OC)c1-c1cccc2c(C[C@H](NC(=O)C3(C(F)(F)F)CCN(CC(F)(F)F)CC3)C(=O)O)cccc12
> 8.00

Write down measured pIC50 (α4β7 integrin (Homo sapiens (Human), UniProt P13612+P26010)) for this compound. COc1ccc(CN2CC[C@H](F)C2)cc1-c1cccc2c(C[C@H](NC(=O)C3(C(F)(F)F)CCN(CC(F)F)CC3)C(=O)O)cccc12
> 8.00

Write down measured pIC50 (α4β7 integrin (Homo sapiens (Human), UniProt P13612+P26010)) for this compound. O=C(O)[C@H](Cc1cccc2c(-c3ncc(CN4CCC[C@H](F)C4)cc3C3CC3)cccc12)NC(=O)C1(C(F)(F)F)CCN(CC(F)F)CC1
> 8.00

Write down measured pIC50 (α4β7 integrin (Homo sapiens (Human), UniProt P13612+P26010)) for this compound. COc1cc(CN2CCCCC2)cnc1-c1cccc2c(C[C@H](NC(=O)C3(C(F)(F)F)CCN(CC(F)(F)F)CC3)C(=O)O)cccc12
> 8.00

Write down measured pIC50 (α4β7 integrin (Homo sapiens (Human), UniProt P13612+P26010)) for this compound. O=C(O)[C@H](Cc1cccc2c(-c3ncc(CN4CCCCC4)c4ccccc34)cccc12)NC(=O)C1(C(F)(F)F)CCN(CC(F)(F)F)CC1
> 8.00

Write down measured pIC50 (α4β7 integrin (Homo sapiens (Human), UniProt P13612+P26010)) for this compound. COc1cnc(CN2CCC(C)C(F)(F)CC2)cc1-c1cccc2c(C[C@H](NC(=O)C3(C(F)(F)F)CCN(CC(F)(F)F)CC3)C(=O)O)cccc12 (some centres unmarked)
> 8.00

Write down measured pIC50 (α4β7 integrin (Homo sapiens (Human), UniProt P13612+P26010)) for this compound. COc1cccc(CCN2CCCC(C)(C)C2)c1-c1cccc2c(C[C@H](NC(=O)C3(C(F)(F)F)CCN(CC(F)(F)F)CC3)C(=O)O)cccc12
> 8.00

Write down measured pIC50 (α4β7 integrin (Homo sapiens (Human), UniProt P13612+P26010)) for this compound. O=C(O)[C@H](Cc1cccc2c(-c3ncc(CCN4CCC(F)(F)CC4)c4ccccc34)cccc12)NC(=O)C1(C(F)(F)F)CCN(CC(F)(F)F)CC1
7.00 to 8.00

Write down measured pIC50 (α4β7 integrin (Homo sapiens (Human), UniProt P13612+P26010)) for this compound. COC(=O)[C@H](Cc1cccc2c(-c3nc(CN4CCCCC4)cc4ccncc34)cccc12)NC(=O)C1(C(F)(F)F)CCN(CC(F)(F)F)CC1
7.00 to 8.00

Write down measured pIC50 (α4β7 integrin (Homo sapiens (Human), UniProt P13612+P26010)) for this compound. O=C(O)[C@H](Cc1cccc2c(-c3ccc(CN4CCCCC4)cn3)cccc12)NC(=O)C1(C(F)(F)F)CCN(CC(F)(F)F)CC1
7.00 to 8.00

Write down measured pIC50 (α4β7 integrin (Homo sapiens (Human), UniProt P13612+P26010)) for this compound. COc1ccc2cc(CN3CCCCC3)cnc2c1-c1cccc2c(C[C@H](NC(=O)C3(C(F)(F)F)CCN(CC(F)(F)F)CC3)C(=O)O)cccc12
7.00 to 8.00

Write down measured pIC50 (α4β7 integrin (Homo sapiens (Human), UniProt P13612+P26010)) for this compound. COc1cccc(OCCN2CCCCC2)c1-c1cccc2c(C[C@H](NC(=O)C3(C(F)(F)F)CCN(CC(F)(F)F)CC3)C(=O)O)cccc12
> 8.00

Write down measured pIC50 (α4β7 integrin (Homo sapiens (Human), UniProt P13612+P26010)) for this compound. O=C(O)[C@H](Cc1cccc2c(-c3ncc(CCCN4CCCCC4)c4ccccc34)cccc12)NC(=O)C1(C(F)(F)F)CCN(CC(F)(F)F)CC1
> 8.00

* * *

target: α4β1 integrin (Homo sapiens (Human), UniProt P05556+P13612); assay: Integrin Adhesion Assay: Protocol 5 (VCAM-coated plate, RPMI-8866 cells with stable LOF mutation of the ITGB7 gene); type: cell-based; details: RPMI-8866 cells with stable LOF mutation of the ITGB7 gene; read-out: Mean IC50 α4β1 KO^b
Sequence (P05556 21-798, one chain of several): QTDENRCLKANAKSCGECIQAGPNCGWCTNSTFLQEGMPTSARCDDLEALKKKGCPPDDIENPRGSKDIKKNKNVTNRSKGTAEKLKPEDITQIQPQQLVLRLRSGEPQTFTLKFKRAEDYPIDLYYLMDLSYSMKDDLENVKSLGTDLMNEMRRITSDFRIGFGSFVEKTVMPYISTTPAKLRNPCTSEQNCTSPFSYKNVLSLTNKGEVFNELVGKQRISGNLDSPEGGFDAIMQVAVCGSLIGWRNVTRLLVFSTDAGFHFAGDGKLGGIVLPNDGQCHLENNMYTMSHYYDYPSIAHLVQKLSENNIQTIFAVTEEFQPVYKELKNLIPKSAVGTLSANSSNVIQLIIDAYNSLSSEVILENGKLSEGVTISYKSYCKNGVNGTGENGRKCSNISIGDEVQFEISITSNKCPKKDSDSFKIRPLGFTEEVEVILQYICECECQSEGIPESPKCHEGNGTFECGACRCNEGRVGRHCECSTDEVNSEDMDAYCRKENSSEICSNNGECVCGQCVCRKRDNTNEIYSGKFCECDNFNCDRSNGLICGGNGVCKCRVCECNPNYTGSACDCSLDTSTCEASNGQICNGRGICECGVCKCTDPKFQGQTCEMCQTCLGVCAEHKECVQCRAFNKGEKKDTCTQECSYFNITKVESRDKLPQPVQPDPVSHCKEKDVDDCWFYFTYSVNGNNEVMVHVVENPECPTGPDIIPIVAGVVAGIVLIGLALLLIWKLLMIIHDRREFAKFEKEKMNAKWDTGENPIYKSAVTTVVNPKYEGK
pIC50: −log10 of the molar value.
OBSERVATION TYPE: pIC50

| RECORD SMILES | pIC50 |
| --- | --- |
| O=C(O)[C@H](Cc1cccc2c(-c3nccc4ccc(CCCN5CCCCC5)cc34)cccc12)NC(=O)C1(C(F)(F)F)CCN(C2COC2)CC1 | 6.00 to 7.00 |
| Cc1c(F)ccc(F)c1C(=O)N[C@@H](Cc1cccc2c(-c3c(C(F)(F)F)c4ccccc4n(C)c3=O)cccc12)C(=O)O | < 6.00 |

Now look at this one.
For COc1ccc(CN2CCCCC2)c(OC)c1-c1cccc2c(C[C@H](NC(=O)c3c(F)cccc3C#N)C(=O)O)cccc12 , write its pIC50.
< 6.00

* * *

biological target: α4β1 integrin (Homo sapiens (Human), UniProt P05556+P13612); assay: Integrin Adhesion Assay: Protocol 5 (VCAM-coated plate, RPMI-8866 cells with stable LOF mutation of the ITGB7 gene); format: cell-based; settings: Protocol 5; RPMI-8866 cells with LOF mutation of ITGB7, VCAM; read-out: Mean IC50 α4β1 KO
pIC50: −log10 of the molar value.
// pIC50 lookup, one value per entry

// solved cases for pIC50 follow
| MOLECULE | OBSERVATION TYPE | READING |
| --- | --- | --- |
| CC(C)c1cccc(F)c1C(=O)N[C@@H](Cc1cccc2c(-c3c(C(F)(F)F)c4cc(CN5CCCCC5)ccc4n(C)c3=O)cccc12)C(=O)O | pIC50 | 7.00 to 8.00 |
| Cn1c(=O)c(-c2cccc3c(C[C@H](NC(=O)C4(C(F)(F)F)CCN(CC(F)(F)F)CC4)C(=O)O)cccc23)c(C(F)(F)F)c2cc(CN3CCC(F)CC3)ccc21 | pIC50 | 6.00 to 7.00 |
| Cn1c(=O)c(-c2cccc3c(C[C@H](NC(=O)C4(C)CCCN(C5COC5)CC4)C(=O)O)cccc23)c(C(F)(F)F)c2ccccc21 (stereo partly drawn) | pIC50 | < 6.00 |
| COc1ccc(CN2CCCC(C)(C)CC2)c(OC)c1-c1cccc2c(C[C@H](NC(=O)C3(C(F)(F)F)CCN(CC(F)(F)F)CC3)C(=O)O)cccc12 | pIC50 | < 6.00 |
| CN(Cc1cnc(-c2cccc3c(C[C@H](NC(=O)C4(C(F)(F)F)CCN(CC(F)F)CC4)C(=O)O)cccc23)c2ccccc12)CC(F)(F)F | pIC50 | < 6.00 |

For CC1(C)CCN(Cc2cnc(-c3cccc4c(C[C@H](NC(=O)C5(C(F)(F)F)CCN(CC(F)(F)F)CC5)C(=O)O)cccc34)c3ccccc23)CC1 , write its pIC50.
6.00 to 7.00
